Molecular target: Serine/threonine-protein kinase B-raf (Homo sapiens, UniProt P15056, V600E)
Assay: Inhibition of B-Raf V600E mutant (unknown origin)
measuredProperty: IC50

Enquiry: Recorded IC50 for CCc1cc(Nc2nccc(-c3c(-c4ccc(OC)c(C(=O)Nc5c(F)cccc5F)c4)nc4ccccn34)n2)c(OC)cc1N1CCC(N2CCN(S(C)(=O)=O)CC2)CC1 , please?
Return: > 2000 nM

###

Test system: MX1
Experiment: Antiproliferative activity against human MX1 cells assessed as reduction in cell viability after 72 hrs by CellTiter-Glo assay
Format: functional, cell-based
Settings: MX1, 72 h
measuredProperty: pIC50
Here pIC50 is given on a logarithmic scale as minus log10 of the concentration in mol/L.

Enquiry: Form entry - test system: MX1; read-out: pIC50; compound: CCc1cc(Nc2nccc(-c3c(-c4ccc(OC)c(C(=O)Nc5c(F)cccc5F)c4)nc4ccccn34)n2)c(OC)cc1N1CCC(N2CCN(S(C)(=O)=O)CC2)CC1
Return: 6.72

###

Biological target: Glycogen synthase kinase-3 beta (Homo sapiens)
pIC50: −log10 of the molar value.
measuredProperty: pIC50

Enquiry: Record lookup: for Glycogen synthase kinase-3 beta (Homo sapiens), what pIC50 belongs to CCc1cc(Nc2nccc(-c3c(-c4ccc(OC)c(C(=O)Nc5c(F)cccc5F)c4)nc4ccccn34)n2)c(OC)cc1N1CCC(N2CCN(S(C)(=O)=O)CC2)CC1 ?
Return: < 4.60

###

Molecular target: UniProt Q06187
Sequence (Q06187 whole entry): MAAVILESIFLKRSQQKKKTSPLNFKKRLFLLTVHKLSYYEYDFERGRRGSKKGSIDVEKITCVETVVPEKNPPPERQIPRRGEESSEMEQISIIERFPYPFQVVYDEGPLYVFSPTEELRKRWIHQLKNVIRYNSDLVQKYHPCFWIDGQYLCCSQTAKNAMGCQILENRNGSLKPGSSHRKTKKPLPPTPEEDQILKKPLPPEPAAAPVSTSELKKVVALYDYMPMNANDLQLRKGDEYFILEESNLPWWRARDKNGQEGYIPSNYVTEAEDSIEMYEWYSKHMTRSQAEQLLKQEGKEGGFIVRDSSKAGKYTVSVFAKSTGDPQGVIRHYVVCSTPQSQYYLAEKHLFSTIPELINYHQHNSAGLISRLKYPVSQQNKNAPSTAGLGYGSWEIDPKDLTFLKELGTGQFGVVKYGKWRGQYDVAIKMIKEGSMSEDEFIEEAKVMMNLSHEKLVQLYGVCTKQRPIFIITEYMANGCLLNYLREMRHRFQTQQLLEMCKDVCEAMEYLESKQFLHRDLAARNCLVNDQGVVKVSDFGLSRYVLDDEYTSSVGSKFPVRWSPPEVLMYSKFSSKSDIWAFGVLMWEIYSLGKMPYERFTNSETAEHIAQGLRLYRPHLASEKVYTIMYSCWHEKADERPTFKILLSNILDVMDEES
Test: Inhibition of N-terminal His6-tagged recombinant full-length human BTK expressed in baculovirus infected Sf21 cells by filter binding assay
measuredProperty: pIC50
The read-out pIC50 is expressed as -log10 of concentration in moles per litre.

Enquiry: I am curious: what pIC50 value has been reported for CCc1cc(Nc2nccc(-c3c(-c4ccc(OC)c(C(=O)Nc5c(F)cccc5F)c4)nc4ccccn34)n2)c(OC)cc1N1CCC(N2CCN(S(C)(=O)=O)CC2)CC1 ?
Return: 6.45

###

Target: Rho-associated protein kinase 1 (Homo sapiens)
Sequence (Q13464 whole entry): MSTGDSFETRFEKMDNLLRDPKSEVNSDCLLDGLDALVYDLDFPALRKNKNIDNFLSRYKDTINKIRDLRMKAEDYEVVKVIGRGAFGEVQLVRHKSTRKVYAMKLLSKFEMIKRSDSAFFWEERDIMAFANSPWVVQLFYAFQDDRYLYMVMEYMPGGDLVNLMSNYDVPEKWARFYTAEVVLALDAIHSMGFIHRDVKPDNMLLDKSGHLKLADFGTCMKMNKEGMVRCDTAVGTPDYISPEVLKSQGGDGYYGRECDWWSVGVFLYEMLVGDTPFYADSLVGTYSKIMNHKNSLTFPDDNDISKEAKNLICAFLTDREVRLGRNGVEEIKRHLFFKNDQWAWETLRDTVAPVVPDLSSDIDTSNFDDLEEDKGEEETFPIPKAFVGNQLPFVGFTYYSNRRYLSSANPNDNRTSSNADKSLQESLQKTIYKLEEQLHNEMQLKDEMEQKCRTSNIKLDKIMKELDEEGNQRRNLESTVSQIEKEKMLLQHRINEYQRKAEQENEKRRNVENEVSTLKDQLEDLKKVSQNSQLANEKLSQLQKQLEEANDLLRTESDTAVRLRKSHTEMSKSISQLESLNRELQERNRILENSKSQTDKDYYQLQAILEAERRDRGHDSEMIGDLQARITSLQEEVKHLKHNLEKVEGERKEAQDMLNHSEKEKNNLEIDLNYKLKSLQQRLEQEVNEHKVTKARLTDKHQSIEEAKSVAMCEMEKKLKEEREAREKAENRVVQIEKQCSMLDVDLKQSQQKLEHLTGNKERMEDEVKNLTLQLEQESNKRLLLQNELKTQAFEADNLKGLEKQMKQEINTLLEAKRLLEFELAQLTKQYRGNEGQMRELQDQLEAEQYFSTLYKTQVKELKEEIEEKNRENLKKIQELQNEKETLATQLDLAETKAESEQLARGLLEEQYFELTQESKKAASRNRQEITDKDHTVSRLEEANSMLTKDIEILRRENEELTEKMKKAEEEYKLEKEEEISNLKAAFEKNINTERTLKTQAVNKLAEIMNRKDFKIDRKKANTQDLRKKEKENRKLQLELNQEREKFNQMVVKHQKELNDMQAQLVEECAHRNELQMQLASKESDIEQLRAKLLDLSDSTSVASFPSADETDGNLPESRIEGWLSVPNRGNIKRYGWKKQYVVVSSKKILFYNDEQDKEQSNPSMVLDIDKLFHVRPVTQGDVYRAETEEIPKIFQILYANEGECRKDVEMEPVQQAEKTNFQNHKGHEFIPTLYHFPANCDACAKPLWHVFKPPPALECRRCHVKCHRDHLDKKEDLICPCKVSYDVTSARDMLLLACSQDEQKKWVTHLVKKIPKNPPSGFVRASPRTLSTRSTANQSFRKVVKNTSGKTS
pIC50: −log10 of the molar value.
measuredProperty: pIC50

Enquiry: Query pIC50 on Rho-associated protein kinase 1 (Homo sapiens) for CCc1cc(Nc2nccc(-c3c(-c4ccc(OC)c(C(=O)Nc5c(F)cccc5F)c4)nc4ccccn34)n2)c(OC)cc1N1CCC(N2CCN(S(C)(=O)=O)CC2)CC1
Return: < 5.00

###

Molecular target: Phosphatidylinositol 4,5-bisphosphate 3-kinase catalytic subunit beta isoform (Homo sapiens, UniProt P42338)
Sequence (P42338 whole entry, canonical isoform): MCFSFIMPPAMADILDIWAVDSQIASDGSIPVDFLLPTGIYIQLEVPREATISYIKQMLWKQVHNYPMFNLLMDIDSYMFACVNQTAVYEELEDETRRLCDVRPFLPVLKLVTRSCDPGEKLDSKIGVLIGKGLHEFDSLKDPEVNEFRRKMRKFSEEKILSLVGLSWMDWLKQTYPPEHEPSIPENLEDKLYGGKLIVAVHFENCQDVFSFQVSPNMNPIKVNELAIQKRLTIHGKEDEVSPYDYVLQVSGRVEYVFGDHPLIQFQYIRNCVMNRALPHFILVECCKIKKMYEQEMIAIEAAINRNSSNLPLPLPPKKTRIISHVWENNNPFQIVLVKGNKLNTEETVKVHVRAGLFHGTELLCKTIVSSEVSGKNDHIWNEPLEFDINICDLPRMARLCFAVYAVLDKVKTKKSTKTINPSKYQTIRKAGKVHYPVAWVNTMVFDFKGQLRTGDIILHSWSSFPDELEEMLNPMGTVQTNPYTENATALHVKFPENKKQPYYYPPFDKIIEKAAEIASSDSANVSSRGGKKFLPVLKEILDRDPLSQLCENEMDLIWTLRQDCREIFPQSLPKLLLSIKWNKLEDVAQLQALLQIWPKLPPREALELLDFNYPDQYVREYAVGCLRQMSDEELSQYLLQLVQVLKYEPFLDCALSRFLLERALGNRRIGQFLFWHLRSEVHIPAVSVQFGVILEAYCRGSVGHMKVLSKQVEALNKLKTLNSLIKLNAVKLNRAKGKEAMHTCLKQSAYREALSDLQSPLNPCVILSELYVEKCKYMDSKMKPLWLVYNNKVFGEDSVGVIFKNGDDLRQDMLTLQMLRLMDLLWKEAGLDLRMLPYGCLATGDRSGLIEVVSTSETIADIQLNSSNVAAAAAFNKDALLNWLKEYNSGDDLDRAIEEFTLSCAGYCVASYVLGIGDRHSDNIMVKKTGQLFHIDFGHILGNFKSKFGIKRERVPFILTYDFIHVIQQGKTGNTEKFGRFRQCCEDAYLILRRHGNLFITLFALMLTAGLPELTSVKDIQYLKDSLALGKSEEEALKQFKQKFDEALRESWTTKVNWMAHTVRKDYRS
Assay: Inhibition of PI3Kbeta (unknown origin)
measuredProperty: IC50

Enquiry: Name the recorded IC50 for CCc1cc(Nc2nccc(-c3c(-c4ccc(OC)c(C(=O)Nc5c(F)cccc5F)c4)nc4ccccn34)n2)c(OC)cc1N1CCC(N2CCN(S(C)(=O)=O)CC2)CC1 .
Return: > 10 µM

###

Target: Fibroblast growth factor receptor 1 (Homo sapiens, UniProt P11362)
Experiment: Inhibition of N-terminal GST-tagged recombinant human FGFR1 (456 to 765 residues) expressed in baculovirus infected Sf21 cells by filter binding assay
measuredProperty: IC50 (nM)
Number only, in nM; omit the unit.

Enquiry: # lookup: IC50 of CCc1cc(Nc2nccc(-c3c(-c4ccc(OC)c(C(=O)Nc5c(F)cccc5F)c4)nc4ccccn34)n2)c(OC)cc1N1CCC(N2CCN(S(C)(=O)=O)CC2)CC1
Return: 1880

###

Target: Protein kinase C epsilon type (Homo sapiens, UniProt Q02156)
Sequence (Q02156 whole entry): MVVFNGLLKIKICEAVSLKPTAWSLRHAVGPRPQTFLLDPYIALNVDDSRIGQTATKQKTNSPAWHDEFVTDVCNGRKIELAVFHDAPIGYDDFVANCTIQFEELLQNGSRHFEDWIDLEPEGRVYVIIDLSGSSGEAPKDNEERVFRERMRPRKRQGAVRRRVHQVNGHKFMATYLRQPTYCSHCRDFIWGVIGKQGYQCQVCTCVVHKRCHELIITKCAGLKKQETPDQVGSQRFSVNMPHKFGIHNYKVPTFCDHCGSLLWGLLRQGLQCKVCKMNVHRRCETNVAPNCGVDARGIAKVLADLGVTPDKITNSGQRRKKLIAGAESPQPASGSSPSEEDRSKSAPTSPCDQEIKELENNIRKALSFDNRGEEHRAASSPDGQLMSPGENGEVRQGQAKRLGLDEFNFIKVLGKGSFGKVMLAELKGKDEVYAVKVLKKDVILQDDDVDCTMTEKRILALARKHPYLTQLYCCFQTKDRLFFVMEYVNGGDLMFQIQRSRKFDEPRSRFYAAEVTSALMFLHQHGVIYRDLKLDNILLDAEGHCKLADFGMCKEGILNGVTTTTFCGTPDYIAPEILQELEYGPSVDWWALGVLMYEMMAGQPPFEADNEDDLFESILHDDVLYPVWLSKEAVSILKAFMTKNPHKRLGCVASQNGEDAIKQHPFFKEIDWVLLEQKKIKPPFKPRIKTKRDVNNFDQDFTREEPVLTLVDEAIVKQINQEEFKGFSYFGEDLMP
measuredProperty: IC50 (µM)
I only need the number, in µM, no unit after it.

Enquiry: Would you kindly share the measured IC50 for CCc1cc(Nc2nccc(-c3c(-c4ccc(OC)c(C(=O)Nc5c(F)cccc5F)c4)nc4ccccn34)n2)c(OC)cc1N1CCC(N2CCN(S(C)(=O)=O)CC2)CC1 ?
Return: 10

###

Biological target: UniProt:P08069
Experiment: Inhibition of N-terminal 6His-tagged recombinant human IGF-1R (959 to end residues) expressed in baculovirus infected Sf21 cells by filter binding assay
measuredProperty: IC50 (nM)
Supply the numeric figure in nM, leaving out any unit text.

Enquiry: Form field: reported IC50 of CCc1cc(Nc2nccc(-c3c(-c4ccc(OC)c(C(=O)Nc5c(F)cccc5F)c4)nc4ccccn34)n2)c(OC)cc1N1CCC(N2CCN(S(C)(=O)=O)CC2)CC1
Return: 58

###

Target: Insulin receptor (Homo sapiens, UniProt P06213)
Sequence (P06213 28-758 limits assumed): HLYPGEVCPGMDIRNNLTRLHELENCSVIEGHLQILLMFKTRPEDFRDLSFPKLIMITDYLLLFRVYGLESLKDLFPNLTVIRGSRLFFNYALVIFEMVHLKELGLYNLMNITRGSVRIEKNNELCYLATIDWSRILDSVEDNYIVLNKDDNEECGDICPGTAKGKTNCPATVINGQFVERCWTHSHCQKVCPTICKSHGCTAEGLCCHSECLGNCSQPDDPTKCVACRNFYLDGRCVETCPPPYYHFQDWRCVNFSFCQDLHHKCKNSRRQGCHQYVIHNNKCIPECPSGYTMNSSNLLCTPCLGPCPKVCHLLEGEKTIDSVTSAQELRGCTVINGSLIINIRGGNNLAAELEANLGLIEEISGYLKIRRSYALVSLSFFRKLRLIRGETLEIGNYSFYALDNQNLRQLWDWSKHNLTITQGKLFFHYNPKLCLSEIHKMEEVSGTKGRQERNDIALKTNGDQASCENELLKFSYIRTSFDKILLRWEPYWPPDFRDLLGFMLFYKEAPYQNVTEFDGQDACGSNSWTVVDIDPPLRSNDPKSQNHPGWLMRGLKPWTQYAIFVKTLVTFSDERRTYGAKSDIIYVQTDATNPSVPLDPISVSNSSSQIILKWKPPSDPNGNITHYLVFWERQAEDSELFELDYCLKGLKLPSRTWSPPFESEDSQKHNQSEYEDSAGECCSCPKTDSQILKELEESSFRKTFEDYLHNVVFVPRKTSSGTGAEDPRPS
Sequence (P06213 763-1382 limits assumed): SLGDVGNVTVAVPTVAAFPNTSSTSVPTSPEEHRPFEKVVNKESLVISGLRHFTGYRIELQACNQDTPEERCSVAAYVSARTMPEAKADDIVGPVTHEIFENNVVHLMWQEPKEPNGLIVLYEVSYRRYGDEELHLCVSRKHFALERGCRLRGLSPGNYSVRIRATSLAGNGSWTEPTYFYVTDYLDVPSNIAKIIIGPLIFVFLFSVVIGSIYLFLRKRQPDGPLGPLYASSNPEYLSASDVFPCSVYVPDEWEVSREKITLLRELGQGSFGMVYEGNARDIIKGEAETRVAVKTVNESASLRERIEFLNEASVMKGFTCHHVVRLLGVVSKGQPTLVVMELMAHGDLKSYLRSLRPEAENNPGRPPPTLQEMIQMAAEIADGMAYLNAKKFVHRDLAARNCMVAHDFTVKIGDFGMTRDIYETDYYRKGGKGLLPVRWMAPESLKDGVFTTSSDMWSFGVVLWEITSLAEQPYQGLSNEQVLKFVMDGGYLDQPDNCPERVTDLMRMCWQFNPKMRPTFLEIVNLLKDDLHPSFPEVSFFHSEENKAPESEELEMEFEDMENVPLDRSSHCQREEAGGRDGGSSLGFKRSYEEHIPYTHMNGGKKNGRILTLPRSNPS
Test: Inhibition of N-terminal His6-tagged recombinant human IR (1005 to 1310 residues) expressed in baculovirus infected Sf21 cells by filter binding assay
measuredProperty: IC50

Enquiry: Reported IC50 for CCc1cc(Nc2nccc(-c3c(-c4ccc(OC)c(C(=O)Nc5c(F)cccc5F)c4)nc4ccccn34)n2)c(OC)cc1N1CCC(N2CCN(S(C)(=O)=O)CC2)CC1 : what is it?
Return: 0.074 µM

###

Target: Epidermal growth factor receptor (Homo sapiens, UniProt P00533)
pIC50: −log10 of the molar value.
measuredProperty: pIC50

Enquiry: Missing value: pIC50, Epidermal growth factor receptor (Homo sapiens, UniProt P00533), entry CCc1cc(Nc2nccc(-c3c(-c4ccc(OC)c(C(=O)Nc5c(F)cccc5F)c4)nc4ccccn34)n2)c(OC)cc1N1CCC(N2CCN(S(C)(=O)=O)CC2)CC1 . Fill in?
Return: < 5.00

###

Biological target: Tyrosine-protein kinase Lck (Homo sapiens)
measuredProperty: pIC50
FYI, pIC50 means -log10 of a concentration in mol per litre.

Enquiry: Report pIC50 for CCc1cc(Nc2nccc(-c3c(-c4ccc(OC)c(C(=O)Nc5c(F)cccc5F)c4)nc4ccccn34)n2)c(OC)cc1N1CCC(N2CCN(S(C)(=O)=O)CC2)CC1 please.
Return: 5.10

###

Assay: Antiproliferative activity against human SUPM2 cells assessed as reduction in cell viability after 72 hrs by CellTiter-Glo assay
Assay type: functional, cell-based
Conditions: SUP-M2, 72 h
measuredProperty: IC50

Enquiry: Quick one: IC50 of CCc1cc(Nc2nccc(-c3c(-c4ccc(OC)c(C(=O)Nc5c(F)cccc5F)c4)nc4ccccn34)n2)c(OC)cc1N1CCC(N2CCN(S(C)(=O)=O)CC2)CC1 ?
Return: > 30 µM

###

Molecular target: Calcium/calmodulin-dependent protein kinase kinase 2 (Homo sapiens)
Sequence (Q96RR4 whole entry): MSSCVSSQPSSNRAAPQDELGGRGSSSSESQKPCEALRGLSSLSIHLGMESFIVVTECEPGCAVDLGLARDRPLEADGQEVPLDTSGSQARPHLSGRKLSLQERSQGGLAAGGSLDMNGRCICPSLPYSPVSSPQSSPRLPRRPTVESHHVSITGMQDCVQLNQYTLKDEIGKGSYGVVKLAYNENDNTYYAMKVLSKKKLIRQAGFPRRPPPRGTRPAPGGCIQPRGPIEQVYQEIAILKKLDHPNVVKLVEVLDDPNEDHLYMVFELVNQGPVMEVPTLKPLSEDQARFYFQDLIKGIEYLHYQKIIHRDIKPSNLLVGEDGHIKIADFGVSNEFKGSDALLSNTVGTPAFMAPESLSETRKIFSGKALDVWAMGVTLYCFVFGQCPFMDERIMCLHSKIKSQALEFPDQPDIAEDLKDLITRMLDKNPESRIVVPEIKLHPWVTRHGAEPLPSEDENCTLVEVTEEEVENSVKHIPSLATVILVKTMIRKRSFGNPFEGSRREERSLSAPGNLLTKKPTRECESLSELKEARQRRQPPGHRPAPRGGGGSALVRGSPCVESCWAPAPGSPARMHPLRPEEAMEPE
Assay: Inhibition of CAMKK2 (unknown origin)
pIC50: −log10 of the molar value.
measuredProperty: pIC50

Enquiry: Quick check: pIC50 of CCc1cc(Nc2nccc(-c3c(-c4ccc(OC)c(C(=O)Nc5c(F)cccc5F)c4)nc4ccccn34)n2)c(OC)cc1N1CCC(N2CCN(S(C)(=O)=O)CC2)CC1 ?
Return: < 5.00

###

Test system: EJM
Experiment: Antiproliferative activity against human EJM cells assessed as reduction in cell viability after 72 hrs by CellTiter-Glo assay
Type: functional, cell-based
measuredProperty: IC50

Enquiry: What measured IC50 is associated with CCc1cc(Nc2nccc(-c3c(-c4ccc(OC)c(C(=O)Nc5c(F)cccc5F)c4)nc4ccccn34)n2)c(OC)cc1N1CCC(N2CCN(S(C)(=O)=O)CC2)CC1 on EJM?
Return: > 30 µM

###

Biological target: Serine/threonine-protein kinase SIK2 (Homo sapiens, UniProt Q9H0K1)
pIC50: −log10 of the molar value.
measuredProperty: pIC50

Enquiry: Which pIC50 is reported with Serine/threonine-protein kinase SIK2 (Homo sapiens, UniProt Q9H0K1) for this entry: CCc1cc(Nc2nccc(-c3c(-c4ccc(OC)c(C(=O)Nc5c(F)cccc5F)c4)nc4ccccn34)n2)c(OC)cc1N1CCC(N2CCN(S(C)(=O)=O)CC2)CC1 ?
Return: < 5.00
